Cited source: ChEMBL document CHEMBL3217526

tested on: MDA-MB-231; experiment: Antiproliferative activity against human MDA-MB-231 cells after 72 hrs by MTT assay; format: functional, cell-based; details: MDA-MB-231, 72 h
Recorded measurements of pIC50, one per entry
To interpret pIC50, take it as minus log10 of a concentration measured in moles per litre.

{"COMPOUND": "CC(C)=CCC[C@]1(C)[C@@H](O)CC[C@@]2(C)[C@H]1CC[C@H]1Cc3c([nH]c4ccccc34)[C@@]12C [EMINDOLE SB]", "pIC50": 4.67}

Enquiry: Requested read-out: pIC50. Entry: C=C(C)[C@H]1O[C@H]2CC[C@@]3(C)[C@@](O)(CC[C@H]4[C@@H]5OC(C)(C)[C@H]6C[C@@H]7C(=C)Cc8ccc9[nH]c(c5c9c8[C@@]76O)[C@@]43C)[C@]23O[C@@H]3[C@H]1O
Return: 4.60

Enquiry: # query: pIC50 of entry C=C1Cc2ccc3[nH]c4c5c3c2[C@H]2[C@@H]1C[C@H]2C(C)(C)O[C@H]5[C@@H]1CC[C@@]2(O)C3=C[C@@H](O)[C@@H](C(=C)C)O[C@H]3CC[C@]2(C)[C@@]41C [PENITREM D]
Return: 4.53
